Assay: yeast display, Sf9 membrane polyspecificity reagent, FACS + sequencing; frameworks hold sequencing errors
MEASUREMENT_KIND: polyreactivity (PSR sort gate)

BIOSEQUENCE	RESULT
QVQLVESGGGLVQAGGSLRLSCAASGFIFARNTMGWYRQAPGKERELVAAITKSGGSTNYADSVKGRFTISRDNAKNTVYLQMNSLKPEDTAVYYCAARTYTLRGVYFSGYNYWGQGTQVTVSS	low polyreactivity
QDQLVESCGCLVQAGGSLRLSCASSGSTFGTYAMGWYRQAPGKERELVAAISSGDSTTYADSVKGRFTISRDNAKNTVYFQRNSLKQVDTAVYYCAARTFLMRNGGYNYWGEGTQVTVSS	low polyreactivity
QVQLVESGGGLVQAGGSLRLSCAASGSTFQFYAMGWYRHAPGKERELVAAIDGSDGDTYYADSVKGRFTISRDNAKNTVYLQMNSLKPEDTAVYYCNADRDALVGYDYDYWGQGTQVTVSS	low polyreactivity
QVQLVESGGGLVQEGGSLSLSCAASGLTFTGNAMAWYRQAPGKEREFVAAIRWSAGSTYYADSVKGRFTISRDNAKNTVYLQMNSLKPEDTAVYYCYAALNVSGHYPNDYCGQGTQVTVSS	low polyreactivity
QVQIVESGGGLVQAGGSLRFSCAASGRTFGTNTMGWYRQAPGKERELVATISSSSGSTYYADSVKGRFTISRDNAKNTVYLQMNSLKPEDTAVYYCAALSRWRYKRYDYWGQGTQVTVSS	high polyreactivity
QVQLVESGGGLVQAGGSLRLSCAASGSIFKLNAMGWYRQAPGKERELVAAISRGGRKYYADSVKGRFTISRDNAKNTVYLQMNSLKPEDTAVYYCAADASSQIWYYPRDDYWGQGTQVTVSS	low polyreactivity
QVQLVESGGGLVQAGGSLRLSCAASGIIFVKYAMGWYRQAPGKERELVAAITSGGSTYYADSVKGRFTISRDNAKNTVYLQMNSLKPDDTAVYYCNADSWFLYYFTINGYWGQGTQVTVSS	high polyreactivity
QVQLVESGGGLVQAGGSLRLSCAASGRTLERYSMGWYRQAPGKEREFVAAIRWSGGSTYYADSVKGRFTISRDNAKNTVYLQMNSLKPEDTAVYYCNADWQSYYWAGDGYDYWGQGTQVTVSS	low polyreactivity
QVQLVESGGGLVQAGGSLRLSCAASGFTFRSYAMGWYRQAPGKERELVAVISSSGGSTYYADSVKGRFTISRDNAKNTVYLQMNSLKPEDTAVYYCNRRPATRAYLYDYWGQGTQVTVSS	high polyreactivity
QVQLVESGGGLVQAGGSLRLSCAASGGIFGAYAMGWYRQAPGKERELVAASDLTDGDTYYADSVKGRFTSSRDNAKNTVYLQMNSLKPEATAVYYCAAEALYWVVDALDYEGDYWGQGTQVTVSS	high polyreactivity
QVQLVESGGGLVQAGGSLRLSCAASGFTFSRNTMGWYSQAPGKERELVARISASGGSTYFADSVKGRITISRDNAKNTVYLQMTSLKQEATAVYYCAAVYRRYGGSRYDYWGQGTQVTVSS	high polyreactivity

---

Test: yeast display, Sf9 membrane polyspecificity reagent, FACS + sequencing; frameworks hold sequencing errors

BIOSEQUENCE	polyreactivity (PSR sort gate)
QFQLVESGGGLVQAGGSLRLSCAASGIFVGYTMGWYRQAPGKEREFVAAIRWTDGSTYYADSVKGRFTISRDNAKNTVYLQMNSLKPEDTAVYYCAADSHDPARYYYGDEVEDEYWGQGTQVTVSS	low polyreactivity
QVKLVESGGGLVQAGGSLRLSCAASGFTFTQYGLGWNRQAPGKEREFVATIRFSGDNTYYADSVKGRFTISRDNAKNTVYLQMNSLKPEDTAVYYCNADNRAFFVYPVSKRYDSWGQGTQVTVSS	low polyreactivity
QVQHVESGGGLVQAGGSLRLSCAASGNIFVAYAMGGYRQAPGKERELVAAITSGGRTYADSVKGRFTISRDNAKNTVYLQMNSLKPEDTAVYYCNADPYYVYLGYYDRYYSGYGYWGQGTQVTVSS	low polyreactivity
QVQLVESGGGLVQAGGSLRLSCAASGSTFVPNDMGWYRQAPGKERELVAAISYSGGSTYYADSVKGRFTISRDNAKNTVYLQMNSLKPEDTAVYYCAAEKYLGELDYWGQGTQVTVSS	low polyreactivity
QVQLVESGGGLVQAGGSLRLSCAASRIIFSYNPMGWYRQAPGKERELVAASSYGGRTYYAVSVKGRFTISRDNAKNTVDLQMKSLKPEDTAVYYCATRSPHRLYGDYYDYWGLGTQVTVSS	high polyreactivity
QVQLVESGGGLVQAGGSHRLSCAASGSTFGDYAMGWYRQAPGKERELVAAISVRGGSTYYADSVKGRFTISRDNAKNTVYLQMNSLKPVVTAVYYCNKDLYRYPGYDYWGQGTQVTVSS	high polyreactivity
QVQLVESGGGLVQAGGSLRLSCAASGSTFTWYAMGWYRQAPGKERELVADISYGGGSTYYADSVKGRFTISRDNAKNTVYLQMNSLKPEDTAVYYCAADYRWYQRGNPMDYWGQGTQVNVSS	low polyreactivity
QVQLVESGGGLVQAGGSLRLSCAASGRIFSRNAMGWYRQAPGKERELVAAISRSGTSTYYADSVKGRFTISRDNAKNTVYLQMNSLKPEDTAVYYCAAYPYYDRDYWGQGTQVTVSS	low polyreactivity
QVQLVESGGGLVQAGGTLRLSCAASGSTFGYYTMGWYRQAPGKERELVAAITWSGGSTYYADSVKGRFTISRDNAKKTVYLQMNSLKAEDSAVSYCAADDYWTPFGYSGQGTQVTVSS	low polyreactivity
QVQLLESGGGLVQEGGSLRLSCAASGSIFEWYVMGWYRQAPGKERELVDTITSDCSSNYADSVKGRFTISRDNAKNTVYLQMNSLKPEDSAVYYCARDWRWDAWTRRGNDDGYWGQGTQVTVSS	low polyreactivity
QVQLVESGGGLVQAGGSLRLSCAASGITFKLYAIGWYRQAPGKERELVATINRGSSTYYADSVKGRFTISRDNAKNTVYLQMNSLKPEDTAVYYCAADNVRKWHKMDYWGQGTQVTVSS	high polyreactivity
